Target: TbrAK (Trypanosoma brucei rhodesiense, UniProt Q584S0)
Sequence (Q584S0 entry or part of it): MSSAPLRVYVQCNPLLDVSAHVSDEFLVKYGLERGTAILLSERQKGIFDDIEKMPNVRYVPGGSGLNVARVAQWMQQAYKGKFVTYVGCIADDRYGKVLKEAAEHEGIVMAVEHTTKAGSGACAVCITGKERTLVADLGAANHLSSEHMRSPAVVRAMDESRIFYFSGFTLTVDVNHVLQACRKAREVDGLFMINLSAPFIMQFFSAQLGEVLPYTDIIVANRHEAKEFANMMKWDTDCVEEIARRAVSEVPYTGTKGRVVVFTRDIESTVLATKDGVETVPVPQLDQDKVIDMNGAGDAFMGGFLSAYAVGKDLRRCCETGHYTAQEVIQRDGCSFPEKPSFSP
Experiment: Thermal stability assay (thermal unfolding by CD spectroscopy)
Type: binding
Conditions: TbrAK 13 µM; AP5A, adenosine, ATP at 500 µM, compound 1 at 50 µM; apo TbrAK 43.1±0.4; average of three experiments
PROPERTY_MEASURED: Tm ± SD (°C)

c1ccc(Oc2ccc(-c3cc(N4CCOCC4)[nH]n3)cc2)cc1    47.9
Nc1ncnc2c1ncn2[C@@H]1O[C@H](COP(=O)(O)OP(=O)(O)OP(=O)(O)O)[C@@H](O)[C@H]1O [ATP, adenosine triphosphate]    42.8
Nc1ncnc2c1ncn2[C@@H]1O[C@H](COP(=O)(O)OP(=O)(O)OP(=O)(O)OP(=O)(O)OP(=O)(O)OC[C@H]2O[C@@H](n3cnc4c(N)ncnc43)[C@H](O)[C@@H]2O)[C@@H](O)[C@H]1O [AP5A, P^1,P^5-di(adenosine-5′)-pentaphosphate]    50.5
Nc1ncnc2c1ncn2[C@@H]1O[C@H](CO)[C@@H](O)[C@H]1O    50.7

* * *

Target: TbrAK (Trypanosoma brucei rhodesiense)
Experiment: Isothermal titration calorimetry (ITC)
Format: binding
Conditions: read-out: KD, low affinity binding site; two-sites non-interacting binding model; mean of two experiments
PROPERTY_MEASURED: Kd (µM)

Nc1ncnc2c1ncn2[C@@H]1O[C@H](CO)[C@@H](O)[C@H]1O    27.6

* * *

Biological target: UniProt Q584S0
Assay: TbrAK activity assay (HPLC, ADP/ATP ratio)
Format: biochemical
Conditions: efficacy of TbrAK in absence of compound taken as reference; n.e. = no effect
Protocol: The activation potential of a series of compound 1 derivatives (compounds 2–7) was measured using a recently developed HPLC method. The resulting ADP/ATP ratios were calculated and used as a measure of activity. For comparative reasons the activity recorded in absence of compound was set to 100%. The mean of three independent measurements is reported.
PROPERTY_MEASURED: efficacy increase (TbrAK activation) (fold)

c1ccc(Oc2ccc(-c3cc(N4CCOCC4)[nH]n3)cc2)cc1 [compound 1]    3.5
CCc1ccc(-c2cc(C3CCOCC3)[nH]n2)cc1 [compound 3]    2.5
c1ccc(Oc2ccc(-c3cc(CN4CCOCC4)[nH]n3)cc2)cc1 [compound 5]    1.5
Clc1ccc(-c2cc(N3CCOCC3)[nH]n2)cc1 [compound 4]    2.0
c1ccc(Oc2ccc(-c3cc(C4CCOCC4)[nH]n3)cc2)cc1 [compound 2]    2.0

* * *

Target: TbrAK (adenosine kinase of T. b. rhodesiense) (Trypanosoma brucei rhodesiense, UniProt Q584S0)
Sequence (Q584S0 entry or part of it): as above
Assay: TbrAK activity assay (HPLC, ADP/ATP ratio)
Conditions: compound range 1–2000 µM; average of three experiments; n.e. = no effect, neither activator nor inhibitor; read-out: potency EC50 (TbrAK activation)
pEC50: −log10 of the molar value.
PROPERTY_MEASURED: pEC50

Clc1ccc(-c2cc(N3CCOCC3)[nH]n2)cc1 [compound 4]    3.87
CCc1ccc(-c2cc(C3CCOCC3)[nH]n2)cc1 [compound 3]    3.77
c1ccc(Oc2ccc(-c3cc(CN4CCOCC4)[nH]n3)cc2)cc1 [compound 5]    3.71
c1ccc(Oc2ccc(-c3cc(C4CCOCC4)[nH]n3)cc2)cc1 [compound 2]    4.60
